- Measured Target: human SPPL2a (Homo sapiens, UniProt Q8TCT8)
- Assay Details: Sppl2a RGA (reporter gene assay) in HEK293 cells
- Type: cell-based
- Parameters: expressed in transfected cells; host or cells: HEK293 (transient)
- Experimental Parameters: NT-TNF-VP16-Gal4 substrate, Gal4-luciferase reporter, 24 h
Attribute Measured: IC50 (nM)

P: CCc1cc(-c2cc(NC(=O)C[C@@H](C)C(=O)N[C@@H]3C(=O)N4CCCN4Cc4ccccc43)n(C)n2)on1
Q: Cc1ccn(C)c1C(=O)NC[C@@H](C)C(=O)N[C@@H]1C(=O)N2CCCN2Cc2ccccc21
R: C[C@H](Cc1nc2ccccc2[nH]1)C(=O)N[C@@H]1C(=O)N2CCCN2Cc2ccccc21
S: Cc1cccc2nc(C[C@@H](C)C(=O)N[C@@H]3C(=O)N4CCCN4Cc4ccccc43)[nH]c12
T: C[C@H](CNC(=O)c1ccnn1C)C(=O)N[C@@H]1C(=O)N2CCCN2Cc2ccccc21
Request: Rank the 5 molecules shown above by IC50, smallest number first. Give the labels in the order requested.
Response: P, S, R, Q, T

---

- Measured Target: UniProt Q8TCT8
- Sequence (Q8TCT8 26-520): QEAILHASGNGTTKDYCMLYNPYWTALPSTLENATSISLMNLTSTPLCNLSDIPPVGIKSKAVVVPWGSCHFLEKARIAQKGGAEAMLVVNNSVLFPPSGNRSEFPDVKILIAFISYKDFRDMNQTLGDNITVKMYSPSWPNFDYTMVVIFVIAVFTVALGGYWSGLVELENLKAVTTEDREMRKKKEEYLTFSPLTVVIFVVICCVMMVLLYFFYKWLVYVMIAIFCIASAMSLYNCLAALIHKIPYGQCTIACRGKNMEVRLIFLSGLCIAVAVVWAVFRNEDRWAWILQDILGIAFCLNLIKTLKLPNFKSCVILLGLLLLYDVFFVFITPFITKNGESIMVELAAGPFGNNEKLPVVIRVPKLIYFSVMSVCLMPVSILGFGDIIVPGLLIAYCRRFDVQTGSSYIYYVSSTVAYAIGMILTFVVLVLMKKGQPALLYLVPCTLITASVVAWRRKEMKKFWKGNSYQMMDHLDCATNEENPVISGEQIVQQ
- Assay Details: Sppl2a RGA (reporter gene assay) in HEK293 cells
- Type: cell-based
- Set-up: expressed in transfected cells; host or cells: HEK293 (transient)
- Experimental Parameters: NT-TNF-VP16-Gal4 substrate, Gal4-luciferase reporter, 24 h
Attribute Measured: IC50 (nM)

Worked cases, IC50 given:
{"Given Smiles": "C[C@H](Cc1nc2cccc(Br)c2[nH]1)C(=O)N[C@@H]1C(=O)N2CCCN2Cc2ccccc21", "Measured Target": "UniProt Q8TCT8", "Attribute Measured": "IC50", "Numeric Readout": 42}
{"Given Smiles": "C[C@@H](CF)NC(=O)c1cc(NC(=O)C[C@H](C(=O)N[C@@H]2C(=O)N3CCCN3Cc3c(F)cccc32)C2CC2)n(C)n1", "Measured Target": "UniProt Q8TCT8", "Attribute Measured": "IC50", "Numeric Readout": 28}
{"Given Smiles": "CC[C@H](CNC(=O)c1scnc1Cl)C(=O)N[C@@H]1C(=O)N2CC3(CC3)CN2C(=O)c2ccccc21", "Measured Target": "UniProt Q8TCT8", "Attribute Measured": "IC50", "Numeric Readout": 89}
{"Given Smiles": "C[C@H](CC(=O)Nc1cc(C(=O)NCCC(F)(F)F)nn1C)C(=O)N[C@@H]1C(=O)N2CCCN2Cc2ccccc21", "Measured Target": "UniProt Q8TCT8", "Attribute Measured": "IC50", "Numeric Readout": 40}
{"Given Smiles": "CCNC(=O)c1nc(C)c(C(=O)NC[C@H](C(=O)N[C@@H]2C(=O)N3CCCN3Cc3ccccc32)C2CC2)s1", "Measured Target": "UniProt Q8TCT8", "Attribute Measured": "IC50", "Numeric Readout": 4}

a: CNC(=O)c1nc(C)c(C(=O)NC[C@H](C(=O)N[C@@H]2C(=O)N3CCCN3Cc3ccccc32)C(F)(F)F)s1
b: Cc1nc(C(=O)NCC(F)F)sc1C(=O)NC[C@H](C(=O)N[C@@H]1C(=O)N2CCCN2Cc2ccccc21)C(F)(F)F
Request: Between a and b , which one shows the smaller IC50 number? Reply with the label of the item you choose.
Response: b
